Value source: ChEMBL document CHEMBL1126899

SYSTEM_UNDER_TEST: Type-1 angiotensin II receptor (Oryctolagus cuniculus, UniProt P34976)
Sequence (P34976 whole entry): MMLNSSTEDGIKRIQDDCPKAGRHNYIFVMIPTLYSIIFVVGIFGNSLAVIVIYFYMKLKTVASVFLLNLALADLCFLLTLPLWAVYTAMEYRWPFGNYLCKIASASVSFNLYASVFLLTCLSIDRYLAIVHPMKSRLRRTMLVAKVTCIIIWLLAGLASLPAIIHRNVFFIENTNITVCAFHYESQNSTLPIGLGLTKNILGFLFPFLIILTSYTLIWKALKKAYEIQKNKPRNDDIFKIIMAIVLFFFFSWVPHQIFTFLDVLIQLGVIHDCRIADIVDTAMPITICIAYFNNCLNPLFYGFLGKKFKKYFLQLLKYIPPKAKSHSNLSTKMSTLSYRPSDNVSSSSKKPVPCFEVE
EXPERIMENT_SUMMARY: Evaluation of Angiotensin II antagonistic activity by displacement of [125I]-Sar Ile-AII at the rabbit aorta Angiotensin II receptor, type 1
pIC50: −log10 of the molar value.
MEASUREMENT_KIND: pIC50

Completed entries (count: 4):
SMILES_TEXT | SYSTEM_UNDER_TEST | pIC50
CCCCc1nn(-c2ccccc2C)c(C(=O)OCC)c1Cc1ccc(-c2ccccc2-c2nn[nH]n2)cc1 | Type-1 angiotensin II receptor (Oryctolagus cuniculus, UniProt P34976) | 7.89
CCCCc1nn(-c2ccccc2C(F)(F)F)c(C(=O)OCC)c1Cc1ccc(-c2ccccc2-c2nnn[nH]2)cc1 | Type-1 angiotensin II receptor (Oryctolagus cuniculus, UniProt P34976) | 7.68
CCCc1nn(Cc2ccccc2)c(C(=O)OCC)c1Cc1ccc(-c2ccccc2-c2nn[nH]n2)cc1 | Type-1 angiotensin II receptor (Oryctolagus cuniculus, UniProt P34976) | 7.66
CCCCc1nn(-c2ccccc2-c2ccccc2)c(C(=O)OCC)c1Cc1ccc(-c2ccccc2-c2nn[nH]n2)cc1 | Type-1 angiotensin II receptor (Oryctolagus cuniculus, UniProt P34976) | 7.64

1. CCCCc1n[nH]c(C(=O)OCC)c1Cc1ccc(-c2ccccc2-c2nn[nH]n2)cc1
2. CCCCc1nn(-c2ccccc2C(F)(F)F)c(C(=O)O)c1Cc1ccc(-c2ccccc2-c2nn[nH]n2)cc1
3. CCCCc1nn(-c2ccccc2[N+](=O)[O-])c(C(=O)OCC)c1Cc1ccc(-c2ccccc2-c2nnn[nH]2)cc1
List from greatest to least pIC50. Show the ranking through the labels, in the order asked for.
2, 3, 1
(2: 9.62, 3: 8.02, 1: 6.89)

###

SYSTEM_UNDER_TEST: Type-1 angiotensin II receptor (Oryctolagus cuniculus, UniProt P34976)
EXPERIMENT_SUMMARY: Evaluation of Angiotensin II antagonistic activity by displacement of [125I]-Sar Ile-AII at the rabbit aorta Angiotensin II receptor, type 1
MEASUREMENT_KIND: IC50 (nM)

A. CCCCc1nn(-c2cc(Cl)ccc2Cl)c(C(=O)OCC)c1Cc1ccc(-c2ccccc2-c2nn[nH]n2)cc1
B. CCCCc1nn(-c2c(Cl)cccc2Cl)c(C(=O)OCC)c1Cc1ccc(-c2ccccc2-c2nnn[nH]2)cc1
C. CCCCc1nn(CCc2ccccc2)c(C(=O)O)c1Cc1ccc(-c2ccccc2-c2nn[nH]n2)cc1
Ascending by IC50, please. Show the ranking through the labels, in the order asked for.
C, B, A
(C: 0.24 nM, B: 8 nM, A: 105 nM)
